Test system: OVCAR-3 ovarian
Assay: NCI tumour cell line growth inhibition, 48 h; in the data active = GI50 below about 0.43 µM; inactive = the rest
Field 'call' accepts active, inactive

These recorded examples may help you get a feel for the data.
N/C(=N\C(N)=N\c1nc2ccccc2s1)c1cnccn1 : inactive
COc1cc(/C=C\c2cc(OC)c(OC)c(OC)c2)cc(NS(=O)(=O)c2ccc(Cl)cc2)c1OC : active
Cc1ccnc(Nc2ccc([N+](=O)[O-])c(NCCN3CCOCC3)n2)c1 : active

*Q* // outcome(item) with item = CC1OC(OC2C(O[C@H]3CC[C@@]4(C)C(=CC[C@H]5[C@@H]6C[C@@H]7O[C@]8(CC[C@@H](C)CO8)[C@@H](C)[C@@H]7[C@@]6(C)CC[C@@H]54)C3)OC(CO)C(OC3OC(CO)C(O)C3O)C2O)C(O)C(O)C1O (some centres undefined)
*A* inactive
